B1: RHOBTB2 (parent)
chain: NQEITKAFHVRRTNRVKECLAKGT

Variants of: B1
Procedure text: protein stability index of a GFP-peptide fusion (GPS, HEK-293T) (PSI 1-6); higher = more stable;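 note: lentivirally expressed fusions sorted by FACS into six bins by GFP to DsRed ratio, PSI derived from sequencing read proportions per bin multiplied by bin number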
Test conditions: c terminus: a fixed tail appended
If the reported protein stability index equals or exceeds 3, assign label 1. If not, assign label 0.

Request: Confirm if protein stability index reported for the variant R12Y is 3 or above.
Response: label 0

Request: Follow-up item: F8R
Response: label 1

Request: Follow-up item: V16H
Response: label 0

Request: Follow-up item: R11N
Response: label 1

Request: Follow-up item: R15C
Response: label 1

Request: Follow-up item: E3S
Response: label 0

Request: Follow-up item: T24H
Response: label 1

Request: Follow-up item: R11K
Response: label 1

Request: Follow-up item: K22V
Response: label 0

Request: Follow-up item: A7E
Response: label 1

Request: Follow-up item: R11M
Response: label 0

Request: Follow-up item: F8E
Response: label 1

Request: Follow-up item: K6R
Response: label 0

Request: Follow-up item: N1Q
Response: label 1

Request: Follow-up item: R15G
Response: label 0

Request: Follow-up item: V16Y
Response: label 0

Request: Follow-up item: Q2V
Response: label 1

Request: Follow-up item: R12D
Response: label 1

Request: Follow-up item: C19T
Response: label 1

Request: Follow-up item: N14H
Response: label 1

Request: Follow-up item: N14G
Response: label 1

Request: Follow-up item: T13A
Response: label 1
